System: EKVX NSCLC
Experiment: NCI tumour cell line growth inhibition, 48 h
Reported TGI values are given for each entry in this list.

See these solved cases before continuing.
O=C1NCC2=C1CCC1c3ccccc3CCN21 (stereo unspecified)	> 100 µM
Cc1oc2nc(N(C)C)n3c(C)nnc3c2c1C	> 100 µM
O=C(O)Cc1ccccc1	> 2000 µM
O=C1C(c2c(O)n(-c3ccccc3)c3ccccc23)=Nc2ccccc21	83.2 µM
[N-]=[N+]=NC1=C(N=[N+]=[N-])c2cccc3cccc(c23)C1=O	> 100 µM

Query block: Can you look up TGI on EKVX NSCLC for O=C(c1no[n+]([O-])c1C(=O)c1csc2ccccc12)c1csc2ccccc12 ?
Result block: 12.5 µM

Query block: Can you look up TGI on EKVX NSCLC for COC12c3ccccc3-c3ccccc3C1[C@@H](C(=O)O)[C@H]2C(=O)O (stereo partly specified) ?
Result block: > 10 µM

Query block: Can you look up TGI on EKVX NSCLC for Cc1cc(N(CCC#N)CCC#N)ccc1N=Nc1ccc([N+](=O)[O-])cc1 ?
Result block: > 100 µM

Query block: Can you look up TGI on EKVX NSCLC for Cc1ccc(NC(=O)CCC(=O)C2CC(=O)CCC2=O)cc1C (stereo unspecified) ?
Result block: > 100 µM

Query block: Can you look up TGI on EKVX NSCLC for Cc1ccc2c(c1)C(=O)c1ccc(C)nc1C2=O ?
Result block: > 100 µM

Query block: Can you look up TGI on EKVX NSCLC for NC1=NC(=O)[C@H](CSCc2ccccc2)N1C(=O)OCc1ccccc1 ?
Result block: > 100 µM

====

Tested on: CCRF-CEM leukemia
Test: NCI tumour cell line growth inhibition, 48 h
Reported TGI values are given for each entry in this list.

COC(=O)[C@@]12C3=NO[C@]1(C(=O)OC)C(O[Si](C)(C)C(C)(C)C)C1OC(C)(C)OC1[C@@H]2[C@@H](OCc1ccccc1)CC3 (some centres undefined)	> 100 µM

Query block: TGI lookup needed for c1ccc2c(c1)SCCCSCCCS2 , thanks.
Result block: > 100 µM

Query block: TGI lookup needed for c1ccc(COc2ccc(Nc3ncnc4ccc(-c5ccco5)cc34)cc2)cc1 , thanks.
Result block: > 25 µM

Query block: TGI lookup needed for CC(=O)N(CCc1ccccc1)C(C)(C#N)c1ccccc1 (centres undefined) , thanks.
Result block: > 100 µM

Query block: TGI lookup needed for COC(=O)c1c(OC(C)=O)ccc2c1c1c(n2Cc2ccccc2)C(=O)c2ccccc2C1=O , thanks.
Result block: 68.6 µM

Query block: TGI lookup needed for COc1cccc(/C=N/[N-]C(N)=O)c1[O-].[OH3+].[Zn+2] , thanks.
Result block: > 100 µM

Query block: TGI lookup needed for CC(=O)NC1C(OCc2ccccc2)OC(CO)C(O)C1OCC(=O)NC(C)C(=O)NC(CCC(=O)Nc1ccc2c(c1)CN1C(=O)c3ccccc3C1=N2)C(N)=O (centres undefined) , thanks.
Result block: > 100 µM

Query block: TGI lookup needed for O=c1[nH]nc(Cc2ccc(Cl)cc2)n1Nc1ccccc1 , thanks.
Result block: > 100 µM

Query block: TGI lookup needed for Cc1[nH]c2ncn(N)c(=N)c2c1Cc1ccccc1 , thanks.
Result block: > 100 µM

====

Reported TGI values are given for each entry in this list.
Tested on: NCI/ADR-RES ovarian
Test: NCI tumour cell line growth inhibition, 48 h

COC12c3ccccc3-c3ccccc3C1[C@@H](C(=O)O)[C@H]2C(=O)O (stereo partly specified)	> 10 µM
COc1ccc2c(c1)C(=O)/C(=C/c1ccc(OCC(=O)c3ccc(Cl)cc3)cc1)O2	41.8 µM
C=C1CCC2C3(C)COC(c4cccc(Cl)c4)OC3CCC2(C)C1/C=C/C1=CCOC1=O (stereo unspecified)	> 100 µM
N=C(N)c1ccc(-c2ccc(-c3ccccc3)o2)cc1	5.85 µM
Nc1nc(Cl)c(N)c(NCC2(CO)CC(O)C2)n1 (stereo unspecified)	> 100 µM
CCOC(=O)/C(=C/c1c(-c2ccccc2)[nH]c2ccccc12)C(=O)c1ccc(Cl)cc1	> 100 µM
COc1ccc(C(c2ccccc2)N2C(=O)CCC2C(=O)O)cc1OC (stereo unspecified)	> 100 µM
CN(C)c1ccc(C=Nc2ccc(-c3nc4ccccc4o3)cc2)cc1	> 100 µM

Query block: Can you look up TGI on NCI/ADR-RES ovarian for ClCc1nc2cc(Cl)ccc2o1 ?
Result block: 98.4 µM

Query block: Can you look up TGI on NCI/ADR-RES ovarian for Cn1cccc1C1CC(=O)N(CCC[Se]C#N)C1=O (stereo unspecified) ?
Result block: 7.85 µM

Query block: Can you look up TGI on NCI/ADR-RES ovarian for COc1cc(O)c2c(=O)cc(C3(OC(C)=O)C=CC(OC4OC(CO)C(O)C(O)C4O)C=C3)oc2c1 (stereo unspecified) ?
Result block: > 100 µM

====

Test system: NCI-H23 lung
Assay: NCI tumour cell line growth inhibition, 48 h
EXPERIMENTAL READOUT: TGI (µM)
Provide only the numeric value, understood in µM.

See these solved cases before continuing.
CCOP(=O)(OCC)OC1CC(n2cnc3c(N(CC)CC)ncnc32)OC1CO[Si](C)(C)C(C)(C)C (stereo not given)	37.2
C[CH2][Sn]([CH2]C)([O]C(=O)c1cc(OC)c(OC)c(OC)c1)[O][Sn]([CH2]C)([CH2]C)[O]C(=O)c1cc(OC)c(OC)c(OC)c1	36.5

Could you now look at the following compound, please?
Query block: TGI lookup needed for O=[N+]([O-])c1ccc(N=Nc2c(O)[nH]c3ccc(Br)cc23)c([N+](=O)[O-])c1 , thanks.
Result block: 8.28

====

Test system: SW-620 colon
Experiment: NCI tumour cell line growth inhibition, 48 h
EXPERIMENTAL READOUT: TGI

CC(=O)/C(=C\n1c(=S)[nH]c2ccc([N+](=O)[O-])cc21)C(=O)Nc1ccccc1C	> 100 µM
COc1ccc(Br)c(CCCCC(=O)O)c1	> 100 µM
COc1cc(-c2cn(-c3ccc(Cl)cc3)c(=O)n2-c2ccccc2)cc(OC)c1OC	> 100 µM

Query block: Can you look up TGI on SW-620 colon for O=C(CC(C(=O)c1ccsc1)c1cccs1)c1ccsc1 (stereo unspecified) ?
Result block: > 100 µM

Query block: Can you look up TGI on SW-620 colon for COc1ccc2c(c1)C(=O)/C(=C/c1ccc(OCC(=O)c3ccc(Cl)cc3)cc1)O2 ?
Result block: 10.6 µM

Query block: Can you look up TGI on SW-620 colon for COc1ccc(Nc2nc3c(N)cc(C(F)(F)F)cc3nc2-c2ccccc2)cc1 ?
Result block: > 100 µM

Query block: Can you look up TGI on SW-620 colon for COC(=O)C12C3C=CC(O3)C1C1C=CC2O1 (stereo unspecified) ?
Result block: > 100 µM

Query block: Can you look up TGI on SW-620 colon for CCC/C(Cl)=N/OC(=O)Nc1cccc(F)c1 ?
Result block: 2.98 µM

====

Reported TGI values are given for each entry in this list.
Test system: IGROV1 ovarian
Assay: NCI tumour cell line growth inhibition, 48 h
Provide only the numeric value, understood in µM.

See these solved cases before continuing.
Cc1ccc(S(=O)(=O)OC(C=O)C(O)C(O)COC(c2ccccc2)(c2ccccc2)c2ccccc2)cc1 (configuration not stated)	29.5
COc1ccc(C2=NN(c3ccc(S(N)(=O)=O)cc3)C(c3ccc(Cl)cc3)C2)c(O)c1 (configuration not stated)	15.2

Could you now look at the following compound, please?
Query block: TGI lookup needed for COc1ccc(N=C/C=C/C(=C/COC(C)=O)OC(C)=O)cc1 , thanks.
Result block: 45.1

====

System: U251 CNS
Test: NCI tumour cell line growth inhibition, 48 h
EXPERIMENTAL READOUT: TGI (µM)
Provide only the numeric value, understood in µM.

See these solved cases before continuing.
COC(=O)/C=C1/OC(c2ccccc2)=CC1=O	32.1
CCC1c2[nH]c3ccccc3c2C[C@H]2C(=O)NC(Cc3ccccc3)C(=O)N12 (stereo partly specified)	56.3
CC(=O)Nc1ccccc1S(=O)(=O)c1c(-c2c(C)c(Cl)c(C)c(Cl)c2C)noc1C	95.5
COc1ccc2c(c1)C(=O)/C(=C/c1ccc(OCC(=O)c3ccc(Cl)cc3)cc1)O2	35.3
O=C1Nc2ccccc2/C1=C\c1c(Cl)[nH]c2ccccc12	9.15
COc1cccc(C2C3=C(COC3=O)N(CCO)c3cc4c(cc32)CCC4)c1 (stereo unspecified)	11.5
O=C(/C=C/c1cccnc1)/C=C/c1cccnc1	1.78
C[C@@H](Oc1cc(-n2cnc3ccc(OCC4CCN(C)CC4)cc32)sc1C(N)=O)c1ccccc1C(F)(F)F	3.4

Could you now look at the following compound, please?
Query block: TGI lookup needed for CN(Cc1cnc2nc(N)nc(N)c2n1)c1ccc(C(=O)NC2CCCCC2)cc1 , thanks.
Result block: 32.5
